System: Smaller Tea Tortrix (Adxophyes sp.)
test.name: Test Example 3: insecticidal effect on smaller tea tortrix, tea leaf immersion
Assay type: in vivo
experimental.conditions: 50 ppm, tea leaves immersed about 30 seconds, larvae, 25° C., humidity 70%, eight days after the inoculation
Source text: Insecticidal Effect on Smaller Tea Tortrix (Adxophyes sp.) Tea leaves were immersed for about 30 seconds in a liquid chemical prepared by diluting a preparation containing each compound listed in Tables 1 to 3 as an active ingredient to adjust the concentration to 50 ppm. […] Eight days after the inoculation, the dead and alive were counted and the insecticidal effect was judged according to the criterion shown in Test Example 1. […]
readout.name: Test Example 3 (insecticidal effect, mortality criterion)

Past entries and their recorded results:
| compound | target.desc | observed.result |
| --- | --- | --- |
| Cc1cc(C(C(F)(F)F)C(F)(F)F)ccc1N(C)C(=O)c1cccc(I)c1C(=O)NC(C)C [6-2] | Smaller Tea Tortrix (Adxophyes sp.) | A (Mortality 100%) |
| CSCC(C)(C)NC(=O)c1c(I)cccc1C(=O)Nc1ccc(C(C(F)(F)F)C(F)(F)F)cc1Br [5-53] | Smaller Tea Tortrix (Adxophyes sp.) | A (Mortality 100%) |
| CON=CC(C)(C)NC(=O)c1c(Br)cccc1C(=O)Nc1ccc(C(C(F)(F)F)C(F)(F)F)cc1C [5-20] | Smaller Tea Tortrix (Adxophyes sp.) | A (Mortality 100%) |
| CSCC(C)(C)NC(=O)c1c(I)cccc1C(=O)Nc1ccc(C(C(F)(F)F)C(F)(F)F)cc1Cl [5-52] | Smaller Tea Tortrix (Adxophyes sp.) | A (Mortality 100%) |
| Cc1cc(C(C(F)(F)F)C(F)(F)F)ccc1NC(=O)c1cccc(C(F)(F)F)c1C(=O)NC(C)(C)CS(C)(=O)=O [5-43] | Smaller Tea Tortrix (Adxophyes sp.) | A (Mortality 100%) |
| CC(C)(CS(C)(=O)=O)NC(=O)c1c(I)cccc1C(=O)Nc1ccc(C(C(F)(F)F)C(F)(F)F)nc1Cl [8-6] | Smaller Tea Tortrix (Adxophyes sp.) | A (Mortality 100%) |

Field: Test Example 3 (insecticidal effect, mortality criterion) (Smaller Tea Tortrix (Adxophyes sp.)). Entry: C[S+]([O-])CC(C)(C)NC(=O)c1c(I)cccc1C(=O)Nc1ccc(C(C(F)(F)F)C(F)(F)F)cc1Br (stereo not shown) [5-54] A (Mortality 100%)

Continue with CC(C)NC(=O)c1c(I)cccc1C(=O)Nc1ccc(C(C(F)(F)F)C(F)(F)F)cc1Cl [5-51] A (Mortality 100%)

Continue with CSCC(C)(C)NC(=O)c1c(I)cccc1C(=O)Nc1ccc(CC(F)(F)C(F)(F)C(F)(F)F)cc1C [5-7] A (Mortality 100%)

Continue with CSCC(C)(C)NC(=O)c1c(C(=O)Nc2ccc(C(C(F)(F)F)C(F)(F)F)cc2C)cccc1C(F)(F)F [5-41] A (Mortality 100%)

Continue with CCc1cc(CC(F)(F)F)ccc1NC(=O)c1cccc(I)c1C(=O)NC(C)(C)CSC [Compound No. 5-2] A (Mortality 100%)

Continue with CSCC(C)(C)NC(=O)c1c(I)cccc1C(=O)Nc1ccc(C(C(F)(F)F)C(F)(F)F)cc1 [5-10] A (Mortality 100%)

Continue with Cc1cc(C(C(F)(F)F)C(F)(F)F)ccc1NC(=O)c1cccc(Cl)c1C(=O)NC(C)C [5-17] A (Mortality 100%)

Continue with CSCC(C)(C)NC(=O)c1c(I)cccc1C(=O)Nc1ccc(C(C(F)(F)F)C(F)(F)F)c(F)c1C [5-61] A (Mortality 100%)

Continue with COc1ccc(CNC(=O)OCC(C)NC(=O)c2c(I)cccc2C(=O)Nc2ccc(C(C(F)(F)F)C(F)(F)F)cc2C)cc1 (stereo not shown) [5-38] A (Mortality 100%)

Continue with CSCC(C)(C)NC(=O)c1c(I)cccc1C(=O)Nc1ccc(CC(F)(F)F)cc1C [5-1] A (Mortality 100%)

Continue with CCN(CC)C(=O)OCC(C)NC(=O)c1c(C(=O)Nc2ccc(C(C(F)(F)F)C(F)(F)F)cc2C)cccc1C(F)(F)F (stereo not shown) [5-44] A (Mortality 100%)
